tested on: A498 renal; assay: NCI-60 one-dose screen, 48 h; conditions: 10 µM unless noted
This is part of a sample that, as a whole, favours compounds with a hit. Of some 83,000 tested, about 20% had one in any assay. Activity calls are given as the source filed them. Rule for the calls: active = growth percent below 10; inactive = the rest.
Outcome field: choose from active, inactive

Cc1nn(-c2ccccc2)c(N)c1N=C1NC(=O)/C(=C/c2ccc(Cl)cc2)S1    inactive

Could you please tell me the result logged for COc1cc2c(c(OC)c1OC)C(=O)CC(c1cccc(C(=O)Nc3cccc(Br)c3)c1)O2 (stereo unspecified) in this assay?
inactive

Which result was noted for this compound in the test: "Cc1ccc(C(=O)Nc2ccc(CN3CCN(C)CC3)c(C(F)(F)F)c2)cc1C#Cc1cnc(N)c2ccc(F)cc12"
active

Give the logged outcome of this assay for the following compound: "Cc1nc(NC(=O)NC2CCCCC2)sc1C(=O)NN"
inactive

Lab log entry: "N=C(N)c1ccc(-c2ccc(-c3ccc(Cl)cc3)s2)s1" — outcome as called in the assay?
inactive

Identify the outcome logged in this assay for the compound shown: "COc1ccc2c(c1)cn1c3ccc(O)cc3[nH]c(=O)c21"
inactive

Answer briefly: the call reported for CCCCCCCCCCC1OC(C)CC(C)O1 (stereo unspecified) in this assay.
inactive

###

test system: SK-MEL-2 melanoma; assay: NCI-60 one-dose screen, 48 h; conditions: 10 µM unless noted
The panel holds about 83,000 compounds, 20% with a hit somewhere; the sample as a whole holds those more often. Active and inactive are the calls of the source. How the source made its calls: active means growth percent below 10; inactive means the rest.
Would you mind answering with one of these outcomes? True for active, False for inactive

Illustrative cases are given below, each with its answer.
O=C(N/N=C\c1ccc(Cl)cc1)C(=O)N/N=C\c1ccc(Cl)cc1    False
CC([C@H]1CC=C2C3CCC4=C[C@@H](N(C)C)CC[C@]4(C)C3CC[C@@]21C)N(C)C (some centres not stated)    False
C=CN(C)S(C)(=O)=O    True

For O=C1CSC(c2ccccc2Cl)N1c1nnc(-c2ccncc2)o1 (configuration not stated) , what call appears in the results of this test?
False

Dear colleague, could you share the recorded outcome for Nc1nc2c(c3cnccc13)C(c1cccc(Br)c1)Cc1cnccc1-2 (configuration not stated) when you have a moment?
False

Answer briefly: the call reported for "BrCCCOc1ccc(Oc2ccc(OCCCBr)cc2)cc1" in this assay.
False

Short answer needed: outcome of this test for "Cc1nc2c(nnn2-c2ccccc2)c2nc(-c3ccc(Cl)cc3)oc(=O)c12" ?
False

Record lookup: outcome of this test for CC(C)OCC1CO1 (configuration not stated) ?
False

Would you mind telling me which call this test gave "N#Cc1ccc(OCc2nc(N)nc(N)c2-c2ccc(Cl)c(Cl)c2)cc1" ?
False

Called result for "NC(=O)c1c(Nc2ccccc2)nn2cc(-c3nc4ccccc4s3)c(N)nc12"
False

Could you kindly confirm the outcome this assay logged for "COc1ccc(CN2C(=O)/C(=C\C(=O)c3ccc(OCCN4CCCCC4)cc3)c3ccccc32)cc1" ?
False

Entry "CC(=O)CC(=O)OC/C=C(/C)CCC=C(C)C" : call = ?
False

###

For each entry below, report its growth value.
Test system: UACC-257 melanoma
Experiment: NCI-60 one-dose screen, 48 h (100 = growth as untreated, 0 = no growth, -100 = all killed)
Conditions: 10 µM unless noted
Method: Cells are grown in 96 well plates and exposed to the test compound for 48 hours. Compounds are tested at a single concentration, which is 10^-5 M for most compounds. The reported endpoint is percent growth (GI% or GIPRCNT), where numbers from 0 - 100% represent growth inhibition, and numbers from -100% - 0 represent cell death. For example, a value of 40 represents 60% growth inhibition. A value of 0 means no net growth occurred over the course of the experiment. […]
The panel holds about 83,000 compounds, 20% with a hit somewhere; the sample as a whole holds those more often. Activity calls are given as the source filed them. How the source made its calls: active means growth percent below 10; inactive means the rest.

Report growth for each item below.
1. O=c1oc2ccc3ccccc3c2cc1-c1ccnc2[nH]c(=S)[nH]c(=O)c12
2. O=C(/C=C/c1c[nH]c2ccccc12)c1cc2ccccc2o1
3. O=C(Nn1cnc2ccccc21)N1CCCC1
4. O=C(/C=C\c1ccc(NCc2ccc(C(=O)O)cc2)cc1)CCl
5. CC(=O)OC1/C=C\CC/C=C\C1 (stereo unspecified)
6. C[C@@H](c1ccc2c(c1)[nH]c1ccc(Cl)cc12)c1nc2ccc(Cl)cc2[nH]1

["98.9% (inactive)", "98.4% (inactive)", "101% (inactive)", "85.6% (inactive)", "108% (inactive)", "98% (inactive)"]

###

system: SNB-19 CNS; assay: NCI-60 one-dose screen, 48 h; conditions: 10 µM unless noted
The panel holds about 83,000 compounds, 20% with a hit somewhere; the sample as a whole holds those more often. The source made the active and inactive calls. How the source made its calls: active means growth percent below 10; inactive means the rest.
Thanks in advance; please answer with one of these: 1 (yes) (active), 0 (no) (inactive)

Below are worked cases with known answers.
COc1cccc(Cn2cc3c(c2)-c2oncc2CC3)c1    0 (no)
Clc1ccc(I)c2ccccc12    0 (no)
CCOC(=O)CCCCCCCCC(=O)OCC    0 (no)
COc1ccc(CNCCCN2C(=O)c3ccc4c5c(ccc(c35)C2=O)C(=O)N(CCCNCc2ccc(OC)c(OC)c2OC)C4=O)c(OC)c1OC    1 (yes)
BrCCCOc1ccc(Oc2ccc(OCCCBr)cc2)cc1    0 (no)
CCn1cnc(C[C@H](NC(=O)[C@@H](NC(=O)Nc2cc(C(F)(F)F)cc(C(F)(F)F)c2)C(C)C)C(=O)OC)c1    1 (yes)
O=C(Nc1cccc(Cn2c(=O)[nH]c3ccc(Oc4ncccn4)cc3c2=O)c1)c1cccc(F)c1    0 (no)
O=C(O)/C(Br)=C/c1c[nH]c2ccc(Br)cc12    0 (no)

Dear all, I need the recorded test outcome for CC(CCN1CCN(CCC(C)CC(C)(C)C)C1CC(C)CC(C)(C)C)CC(C)(C)C (stereo not drawn) , thank you.
0 (no)

Outcome logged for "CCn1cnc(C[C@H](NC(=O)[C@@H](NC(=O)Nc2cc(C(F)(F)F)cc(C(F)(F)F)c2)C(C)(C)C)C(=O)OC)c1" in this assay:
1 (yes)

// param item: "N#CCCCCCCCCCCC#N" ; yields the recorded call
0 (no)

What did this assay record as the result for "COc1ccc(/C(=C(\c2ccccc2)[N+](=O)[O-])c2ccc(OCCN3CCCC3)cc2)cc1" ?
0 (no)

Each compound tested received a call. Report the one for "C#CCCCCCCC[C@@H]1OC(=O)[C@H]([C@@H](C)CC)NC(=O)[C@H]([C@@H](C)CC)NC(=O)CC(=O)[C@@H]1C" .
0 (no)

Please state the recorded outcome for this compound: "CCCCCCCCCCCCCCCCCC1=NCCN1CS(=O)(=O)O"
0 (no)

Dear colleague, could you share the recorded outcome for "COc1ccc(-n2nnnc2-c2cn[nH]c2C(F)(F)F)cc1" when you have a moment?
0 (no)

Any idea what this test logged for "CC(=O)NCCN" ?
0 (no)

Write down the call the test reported for this compound. Item: "C=CCNC(=S)NNc1ccc([N+](=O)[O-])cn1"
0 (no)

Called result for "Cn1cnc2nc[nH]c2c1=S"
0 (no)

Recorded call for "COc1cccc(-c2cc(-c3cc4ccccc4oc3=O)nc(N)n2)c1" ?
0 (no)

For "O=C(Nc1cccc(Cn2c(=O)[nH]c3ccc(Oc4ncccn4)cc3c2=O)c1)c1ccc(Cl)cc1" , which call appears in the assay record?
0 (no)

Hi, sorry to bother you, what did the test record for "COc1cccc2c1nc1cccc(OC)c1[n+]2[O-]" ?
0 (no)

Hello, I am checking results. What call was entered for CCS(=O)(=O)N[C@@H]1O[C@H](COC(C)=O)C(OC(C)=O)[C@H](OC(C)=O)C1OC(C)=O (stereo partly drawn) ?
0 (no)

Test call, this compound: CCCCCCCCCCN1CC2CCCCC2C1 (stereo not drawn)
0 (no)

What call does the record list for CC(=O)CCS(=O)c1ccccc1 (stereo not drawn) ?
0 (no)

How was "CCN(CC)CCNc1ncnc2c1cnn2-c1ccc(Cl)cc1" classified in this test?
0 (no)

###

test system: U251 CNS; test: NCI-60 one-dose screen, 48 h; details: 10 µM unless noted
This is part of a sample that, as a whole, favours compounds with a hit. Of some 83,000 tested, about 20% had one in any assay. The source made the active and inactive calls. The calls were made as follows: active = growth percent below 10; inactive = the rest.
Allowed answers: active, inactive

COc1ccc(-c2cn3ccnc3c(-c3ccc4ncn(C5CCCCC5)c4c3)n2)cc1    inactive
CC(C)CCCCCOC(=O)c1ccccc1SSc1ccccc1C(=O)OCCCCCC(C)C    inactive
CCCCCCCCCC(C)NC(=O)CCl (centres undefined)    inactive
CCCCCCC(=O)C(C)C    inactive

Please indicate how the test categorized "CC(=O)CC(=O)OC/C=C(/C)CCC=C(C)C" .
inactive

Assay outcome for "CC[N+](C)(C)N" : what was it?
inactive

Just curious, what result did "CCCCCCCCCC[N+](C)(C)N" get here?
inactive

What did this assay record as the result for OCC(O)C(O)CC1SCCS1 (centres undefined) ?
inactive

Hi team, can someone confirm the assay call for "C=CCSc1nnc(COc2ccc3c(C)c(Cc4ccccc4)c(=O)oc3c2C)o1" ?
inactive

Test call for this compound, please: "COc1ccc(NC(=O)/C=C(C)/C=C/C=C(C)/C=C/C2=C(C)CCCC2(C)C)cc1"
inactive

Name the outcome recorded for "COc1cccc(Cn2cc3c(c2)-c2oncc2CC3)c1" in the assay.
inactive

Dear all, I need the recorded test outcome for CCOC(=O)C1=C(c2ccccc2)NC(=O)NC1CN1C(=O)c2ccccc2C1=O (centres undefined) , thank you.
inactive

Hello, I am checking results. What call was entered for "CCCCS(=O)(=O)c1cc(Nc2ccc(O)c3c2C(=O)c2ccccc2C3=O)ccc1C" ?
inactive

Which outcome did this test record for the compound "Clc1ccc(N/N=C/c2ccccn2)nc1" ?
inactive

Call for entry "CC[n+]1c(C)ccc2cc(C)ccc21" :
inactive

Tell me the recorded outcome of this test for "COc1ccc(/C=C/C(=O)/C=C/c2cc3ccccc3[nH]c2=O)cc1" .
inactive
